compounds and their reported IC50
# EXPERIMENTAL SYSTEM: HCV polymerase (NS5B570n-Con1) (Hepatitis C virus genotype 1b)
# Construct: a 21 amino acid C-terminal deletion of full-length HCV polymerase
# MEASUREMENT PROTOCOL: biochemical
OUTCOME MEASURE: IC50 (nM)

>>> df
                                   compound  outcome_measure  reading
0  CC(C)(C)c1cc(-c2ccc[nH]c2=O)cc2c(C(=O)N3CCC[C@@H](N)C3)coc12 [Compound I-42]             IC50      549
1  COCCN(CCOC)C(=O)c1coc2c(C(C)(C)C)cc(-c3ccc[nH]c3=O)cc12 [Compound I-19]             IC50     4350
2  CN(Cc1ccc(-c2coc3c(C(C)(C)C)cc(-c4ccc[nH]c4=O)cc23)cc1)S(C)(=O)=O [Compound I-77]             IC50       36
3  CC(C)(C)c1cc(-c2ccc[nH]c2=O)cc2c(C(=O)N3CCCC(CCS(C)(=O)=O)C3)coc12 (stereo not shown) [Compound 132]             IC50       29

###

# EXPERIMENTAL SYSTEM: HCV polymerase (NS5B570n-Con1) (Hepatitis C virus genotype 1b, UniProt Q9WMX2)
# Construct: a 21 amino acid C-terminal deletion of full-length HCV polymerase
# MEASUREMENT PROTOCOL: biochemical
compounds and their reported IC50
OUTCOME MEASURE: IC50 (nM)

>>> df
                                    compound  reading
 0  CC(=O)Nc1ccc(-c2coc3c(C(C)(C)C)cc(-c4ccc[nH]c4=O)cc23)cc1       64
 1  CC(C)(C)OC(=O)NC1CCN(C(=O)c2coc3c(C(C)(C)C)cc(-c4ccc[nH]c4=O)cc23)CC1     4370
 2  CCOC(=O)c1coc2c(C(C)(C)C)cc(-c3ccc[nH]c3=O)cc12      258
 3  CC(C)(C)c1cc(-c2ccc[nH]c2=O)cc2c(C(=O)N3CCC[C@H](NS(C)(=O)=O)C3)coc12      172
 4  CC(C)(C)c1cc(-c2ccc[nH]c2=O)cc2c(C(=O)Nc3ccccc3)coc12      425
 5  CC(C)(C)c1cc(-c2ccc[nH]c2=O)cc2c(C(=O)N3CC(CO)C3)coc12       43
 6  CC(C)(C)c1cc(-c2ccc[nH]c2=O)cc2c(C(=O)N3CCCC(C(N)=O)C3)coc12 (stereo not drawn)       66
 7  Cn1cc(C#N)c2cc(-c3ccc[nH]c3=O)cc(C(C)(C)C)c21      314
 8  Cc1ccsc1C(=O)c1coc2c(C(C)(C)C)cc(-c3ccc[nH]c3=O)cc12       69
 9  CC(C)(C)c1cc(-c2ccc[nH]c2=O)cc2c(C(=O)N3CC(O)C3)coc12      135
10  CC(C)(C)OC(=O)N[C@H]1CCCN(C(=O)c2coc3c(C(C)(C)C)cc(-c4ccc[nH]c4=O)cc23)C1     1410
11  COCc1cc(CNS(C)(=O)=O)ccc1-c1coc2c(C(C)(C)C)cc(-c3ccc[nH]c3=O)cc12      515
